Source listed as patent US11807625B2.

# method.summary: PK of compound of Formula (Ia) after single subcutaneous dose of solution formulations in Wistar Han rats
# Format: in vivo
# assay.setup: male, Wistar Han, rat, plasma, sc, 50 mg/kg, 4032 h; mean, n = 3 rats; SC 50 mg/kg; solution V, 300 mg/mL
# Description: Formulations containing the compound of Formula (Ia), or a pharmaceutically acceptable salt thereof, were prepared as solutions and optionally administered subcutaneously or intramuscularly to rats, rabbits, and/or dogs. A solution of about 400 mg/mL of the compound of Formula (Ia) having 19.14 w/w % water, 40.66 w/w % PEG 300, 35.20 w/w % of a sodium salt of a compound of Formula (Ia), and 5.00% ethanol was prepared. […]
measured.property: concentration at 4032 h (nM)
# number only, unit nM dropped from output

Entry under test: CC(C)(C#Cc1ccc(-c2ccc(Cl)c3c(NS(C)(=O)=O)nn(CC(F)(F)F)c23)c([C@H](Cc2cc(F)cc(F)c2)NC(=O)Cn2nc(C(F)(F)F)c3c2C(F)(F)[C@@H]2C[C@H]32)n1)S(C)(=O)=O . Its concentration at 4032 h was 52.3
